molecular target: Recombinant IDO1 (Homo sapiens, UniProt P14902); construct: His tag (N); made in house; host or cells: E. coli; assay: IDO1 enzymatic assay; type: biochemical; settings: Table 1, 5-substituted imidazo[1,5-a]pyridines; 50 nM IDO1, 1.3 mM D-tryptophan; read-out: Enzyme IC50 (nM) IDO1
Sequence (P14902 whole entry): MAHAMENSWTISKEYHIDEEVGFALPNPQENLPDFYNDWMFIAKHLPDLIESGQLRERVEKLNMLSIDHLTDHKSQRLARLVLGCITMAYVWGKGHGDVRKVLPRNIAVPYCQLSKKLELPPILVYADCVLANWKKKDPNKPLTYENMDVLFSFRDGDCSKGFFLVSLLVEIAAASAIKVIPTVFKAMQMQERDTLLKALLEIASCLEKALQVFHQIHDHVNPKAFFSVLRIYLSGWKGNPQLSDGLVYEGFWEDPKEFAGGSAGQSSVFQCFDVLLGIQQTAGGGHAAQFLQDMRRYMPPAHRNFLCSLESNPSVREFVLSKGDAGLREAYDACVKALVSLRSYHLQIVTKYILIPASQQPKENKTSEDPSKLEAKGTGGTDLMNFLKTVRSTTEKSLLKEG
value type: IC50 (nM)

>  <compound>
CC(C1CCCCC1)C(O)c1c(Cl)ccc2cncn12 (centres unmarked)

>  <tested system>
Recombinant IDO1 (Homo sapiens, UniProt P14902)

>  <units symbol>
nM

>  <value>
29

$$$$

(P) OC(c1c(I)ccc2cncn12)C1CC1 (centres unmarked)
(Q) OC(c1c(C2CCCC2)ccc2cncn12)C1CCCCC1 (centres unmarked)
Higher IC50: P or Q ? I would appreciate it if you answered with the label of your choice.
Q
(Q: 880 nM, P: 59 nM)

(a) OC(c1c(Cl)c(Cl)cc2cncn12)C1CCCCC1 (single isomer, unassigned) [Example A143b]
(b) OC(c1c(C2CC2)ccc2cncn12)C1CCCCC1 (single isomer, unassigned) [Example A126b]
(c) OC(c1c(Cl)c(Cl)cc2cncn12)C1CCCCC1 (centres unmarked) [Example A143]
(d) OC1CCCC(C(O)c2c(C3CC3)ccc3cncn23)C1 (racemic) [Example A164a]
(e) OC(CC1CCCCC1)c1c(Cl)ccc2cncn12 (single isomer, unassigned) [Example A117b]
Please list these compounds in decreasing order of IC50. Arrange the labels as the request states and list them.
b, a, e, d, c
(b: 6800 nM, a: 3400 nM, e: 1600 nM, d: 71 nM, c: 15 nM)

(A) OC1CCCC(C(O)c2c(C3CC3)ccc3cncn23)C1 (racemic) [Example A164c]
(B) O=C1C2CCC(C2)C1C(O)c1c(C2CC2)ccc2cncn12 (centres unmarked)
Out of A and B , name the one with the higher IC50. Respond with the label that goes with your answer.
B
